measured-property: MDR1-MDCK efflux ratio

>  <smi>
CN1CCCN(c2nc(C(F)(F)F)nc3cc4c(cc23)OCO4)CC1

>  <MDR1-MDCK efflux ratio>
1.11

$$$$
>  <smi>
Cc1cc(-n2ccnc2)ccc1C(=O)O

>  <MDR1-MDCK efflux ratio>
0.417

$$$$
>  <smi>
Cc1ccc2oc([C@H]3CCN(Cc4cccs4)C3)nc2c1

>  <MDR1-MDCK efflux ratio>
0.391

$$$$
>  <smi>
COc1cc(N2CCN(C)CC2)ccc1Nc1ncc2c(n1)N(C)c1ccccc1C(=O)N2

>  <MDR1-MDCK efflux ratio>
45

$$$$
>  <smi>
CO[C@@H](C(=O)Nc1cc2c(C)cc(=O)oc2cc1C)c1ccccc1

>  <MDR1-MDCK efflux ratio>
1.15

$$$$
>  <smi>
CC(=O)N1CCC2(C=Cc3cc(C)c(C)cc3O2)CC1

>  <MDR1-MDCK efflux ratio>
0.579

$$$$

[A] NC(=O)c1ccc(N2CCCCC2)c(NC(=O)c2ncoc2-c2ccc3ccccc3c2)c1
[B] COc1cc(Nc2ncc3c(n2)-c2ccc(Cl)cc2C(c2c(F)cccc2OC)=NC3)ccc1C(=O)O
[C] C=CCNC(=O)C1(Cc2ccc(-c3ccccc3)cc2)CCN(C(=O)c2cccnc2)CC1
[D] Cc1c(NC(=O)c2cc(C(N)=O)nc3cc(F)ccc23)c(C(F)(F)F)nn1Cc1ccc(C#N)cc1
[E] CCC(=O)N(C)c1ccccc1C(=O)O
-- ask Arrange items by their MDR1-MDCK efflux ratio values in increasing order. # format: label list in the order the request specifies
-- reply A, E, B, C, D

[I] Cc1nn(-c2ccc(F)cc2)c(Cl)c1C(=O)N1CCC(S(=O)(=O)C(C)C)CC1
[II] CCc1nnc(Oc2cccnc2)c(C#N)c1CC
[III] CC(C)(CO)NCCCCn1c2ccccc2c2ccccc21
-- ask Arrange items by their MDR1-MDCK efflux ratio values in increasing order. # format: label list in the order the request specifies
-- reply II, III, I

###

measured-property: intrinsic clearance, rat liver microsomes (mL/min/kg)

As a guide, the following entries are already answered.
>  <molecule>
Cc1ccc(-n2nc(C(=O)N3CC(O)C3)c3c2CCCC3)cc1

>  <obs-value>
182

$$$$
>  <molecule>
CC(=O)N1CCN(c2c(Cl)cccc2NC(=O)COc2ccccc2Cl)CC1

>  <obs-value>
3580

$$$$
>  <molecule>
C#CCNC(=O)c1ccc2c(c1)OCO2

>  <obs-value>
34.4

$$$$
>  <molecule>
Cn1ccc2c(C(=O)Nc3ncn(Cc4cccnc4)n3)cccc21

>  <obs-value>
30.9

$$$$
>  <molecule>
CCCN(C(=O)c1c(CC)noc1C)C1Cc2ccccc2C1

>  <obs-value>
2380

$$$$
>  <molecule>
CCN(C(=O)N1CCC(OC2CCOCC2)CC1)C(C)C

>  <obs-value>
155

$$$$
>  <molecule>
Cc1ccc(OCCCC(=O)N2CCC(n3c(=O)[nH]c4ccccc43)CC2)cc1

>  <obs-value>
1540

$$$$
>  <molecule>
CC1(C)COCCN1Cc1cnn(-c2ccccc2)n1

>  <obs-value>
1070

$$$$
>  <molecule>
Cc1ccccc1CC(=O)N1CCN(C(=O)c2ccccc2)CC1

>  <obs-value>
211

$$$$
>  <molecule>
CN(NC(=O)c1ccn(-c2ccccc2)n1)c1ccccc1

>  <obs-value>
1900

$$$$

[P] O=C(Nc1cn(CCOCC(F)(F)F)nc1-c1ccccn1)c1coc(-c2cn[nH]c2)n1
[Q] O=c1[nH]c2ccccc2n1C1CCN(c2ncnc3sccc23)CC1
[R] Cc1cc(C(=O)Nc2nnc3n2CCCC3)n(C)n1
-- ask Kindly order the items shown according to intrinsic clearance, rat liver microsomes, from the highest value down. # format: label list in the order the request specifies
-- reply P, Q, R
(P: 518 mL/min/kg, Q: 339 mL/min/kg, R: 11.4 mL/min/kg)

[A] COC(=O)c1ccc(NC(=O)N(C)Cc2ccccc2CN2CCCC2)cc1
[B] COc1ccc(-c2nnc(-c3ccccc3)o2)cc1OC
[C] COc1ccc(OCc2n[nH]c(-c3ncoc3C(C)C)n2)cc1
-- ask Kindly order the items shown according to intrinsic clearance, rat liver microsomes, from the highest value down. # format: label list in the order the request specifies
-- reply C, A, B

###

measured-property: intrinsic clearance, rat liver microsomes (mL/min/kg)

As a guide, the following entries are already answered.
>  <smi>
c1ccc(CO[C@@H]2CCC[C@H]2n2cc(-c3nccs3)nn2)cc1

>  <obs-value>
3020

$$$$
>  <smi>
CC(=O)c1ccc2c(c1)CCN(CCC1OCCO1)CC2

>  <obs-value>
56.2

$$$$
>  <smi>
CCNC(=O)c1ccnc(-c2ccc(F)c(C)c2)c1

>  <obs-value>
1070

$$$$
>  <smi>
CC#CC(=O)N1CCC[C@@H]1c1nc(-c2ccc(C(=O)Nc3ccccn3)cc2)c2c(N)nccn12

>  <obs-value>
275

$$$$
>  <smi>
NC(=O)C1CCN(C(=O)CCc2ccc(Cl)cc2)CC1

>  <obs-value>
135

$$$$

[A] COc1cc(C)cc(OC)c1-c1ccc(OCC(N)=O)cc1
[B] O=C(c1cc(F)ccc1F)N1CCN(C(=O)C2CC2)CC1
[C] O=C(CCc1nnc(-c2ccsc2)o1)N1CCCc2cc(F)c(F)cc21
[D] Cc1sc(-c2ccccn2)nc1-c1ccc(NC(=O)C(C)C)cc1
-- ask Kindly order the items shown according to intrinsic clearance, rat liver microsomes, from the highest value down. # format: label list in the order the request specifies
-- reply C, A, D, B
(C: 1980 mL/min/kg, A: 253 mL/min/kg, D: 48.8 mL/min/kg, B: 19.8 mL/min/kg)

###

measured-property: MDR1-MDCK efflux ratio

>  <smi>
O=C(O)c1c2ccccc2nn1Cc1ccccc1

>  <measured-property>
MDR1-MDCK efflux ratio

>  <obs-value>
1.62

$$$$
>  <smi>
COc1ccccc1N1CCN(c2nc(-c3ccc(C)cc3)cc(=O)[nH]2)CC1

>  <measured-property>
MDR1-MDCK efflux ratio

>  <obs-value>
1.75

$$$$
>  <smi>
C=CC(=O)N1CCC[C@H](n2c(=O)n(-c3ccc(Oc4ccccc4)cc3)c3c(N)ncnc32)C1

>  <measured-property>
MDR1-MDCK efflux ratio

>  <obs-value>
5.79

$$$$

[a] CC(=O)N(C)[C@@H]1CO[C@@H]2CCN(C[C@]3(O)CC[C@@H](C(C)(C)C)CC3)C[C@@H]2C[C@@]1(C)O
[b] CCOc1ccc(C(=O)Cn2c(=O)n(-c3ccc(F)cc3)c3nc(C)nc(C(N)=O)c32)cc1
-- ask When their MDR1-MDCK efflux ratio values are compared, which is larger, a or b ? Refer to your chosen entry by its label in the reply.
-- reply a
(a: 23.5, b: 0.926)

[A] O=C(c1sc(N2CCOCC2)nc1-c1ccccc1)N1CCCCC1
[B] Cc1oc(C)c(C(=O)N2CCNC(=O)C2)c1Br
-- ask When their MDR1-MDCK efflux ratio values are compared, which is larger, A or B ? Refer to your chosen entry by its label in the reply.
-- reply B

[P] COc1ccc(C)cc1NC(=O)CN1CCc2ccccc2C1
[Q] COc1cccc([C@@H](C)n2cnc3cn(C)nc3c2=O)c1
[R] NS(=O)(=O)OC[C@@H]1C[C@@H](n2ccc3c(N[C@H]4CCc5ccccc54)ncnc32)C[C@@H]1O
-- ask Kindly order the items shown according to MDR1-MDCK efflux ratio, from the highest value down. # format: label list in the order the request specifies
-- reply R, Q, P

###

measured-property: intrinsic clearance, human liver microsomes (mL/min/kg)

[A] O=C(O)c1nc(-c2ccccc2)oc1-c1ccccc1
[B] CC(C)Cc1ccccc1CNCc1ccc2[nH]cnc2c1
-- ask When their intrinsic clearance, human liver microsomes values are compared, which is larger, A or B ? Refer to your chosen entry by its label in the reply.
-- reply B

[P] O=C(/C=C\n1cnc(-c2cc(C(F)(F)F)cc(C(F)(F)F)c2)n1)NNc1cnccn1
[Q] O=C([C@@H]1CCCN1C(=O)NC(c1ccccc1)c1ccccc1)N1CCCCC1
-- ask When their intrinsic clearance, human liver microsomes values are compared, which is larger, P or Q ? Refer to your chosen entry by its label in the reply.
-- reply Q

###

measured-property: MDR1-MDCK efflux ratio

[a] Cn1c(SCOCc2ccccc2)nnc1C1CC1
[b] CN1CCC(O)(CNC(=O)C2CCCCCC2)CC1
-- ask When their MDR1-MDCK efflux ratio values are compared, which is larger, a or b ? Refer to your chosen entry by its label in the reply.
-- reply b

###

- condition-notes: pH 6.8
measured-property: aqueous solubility (µg/mL)

>  <compound>
O=C(CN1CCC(n2c(=O)[nH]c3ccccc32)CC1)N1CCc2ccccc21

>  <aqueous solubility / µg/mL>
21.9

$$$$

[P] COc1cc(Nc2cc(-c3cccc(C#N)c3)ccn2)ccc1N1CCN(C)CC1
[Q] CC#CC(=O)N[C@H]1CCCN(c2c(F)cc(C(N)=O)c3[nH]c(C)c(C)c23)C1
[R] COC1CCN(C(=O)Nc2cc(C(F)(F)F)cc(C(F)(F)F)c2)CC1
-- ask Arrange items by their aqueous solubility values in increasing order. # format: label list in the order the request specifies
-- reply Q, P, R
(Q: 10.8 µg/mL, P: 45.8 µg/mL, R: 71.4 µg/mL)

[A] CC(C)c1nc(NCc2cccnc2)n(C)n1
[B] Oc1cccc(CN2CCN(c3ncc(Br)cn3)CC2)c1
-- ask Record comparison, field aqueous solubility: mark the lower of A and B . Refer to your chosen entry by its label in the reply.
-- reply B
(B: 4.95 µg/mL, A: 38.2 µg/mL)

[I] O=C(CN1C(=O)CCC1=O)Nc1ccc(F)c(F)c1F
[II] N#Cc1cc2c(nc1SCc1cccnc1)CCCCCC2
-- ask Record comparison, field aqueous solubility: mark the lower of I and II . Refer to your chosen entry by its label in the reply.
-- reply II
(II: 0.22 µg/mL, I: 50 µg/mL)

[I] O=C(Nc1ccc(Cl)cc1)C(=O)N(C1CCCC1)C1CC1
[II] CCOc1ccc(Nc2nc(-c3c(C)nc4ccccn34)cs2)cc1
[III] O=C(C1CCC(O)CC1)N1CCCN(c2ccc(F)cc2)CC1 (centres undefined)
[IV] CC(=O)N1CCN(c2c(Cl)cccc2NC(=O)COc2ccc(C(C)C)cc2)CC1
-- ask Arrange items by their aqueous solubility values in increasing order. # format: label list in the order the request specifies
-- reply IV, I, II, III

[I] Clc1cccc(CNc2nc(C3CC3)no2)c1
[II] CCc1cc(NCc2cccc(OCCOC)c2)ncn1
-- ask When their aqueous solubility values are compared, which is larger, I or II ? Refer to your chosen entry by its label in the reply.
-- reply II
(II: 49.1 µg/mL, I: 29.3 µg/mL)

[1] Clc1ccc2c(Oc3cccnc3)ncnc2c1
[2] O=C(CSCCCn1c(=O)[nH]c2ccccc21)N1CCCCC1
[3] CC(C)(C)n1cc(CNc2cccnc2)cn1
-- ask Kindly order the items shown according to aqueous solubility, from the highest value down. # format: label list in the order the request specifies
-- reply 2, 1, 3
(2: 59.6 µg/mL, 1: 39.7 µg/mL, 3: 25.4 µg/mL)

[I] CNc1cc(CC2CCNCC2)ncn1
[II] Cc1cc(C)c2c(c1)CCCN2C(=O)c1ccc(-c2nnc(C)o2)cc1
-- ask When their aqueous solubility values are compared, which is larger, I or II ? Refer to your chosen entry by its label in the reply.
-- reply II
